- PROCEDURE TEXT: soluble on expression in E. coli; label from the status in PepcDB or PDB records
MEASURE NAME: soluble on expression in E. coli

MLDFEKPLFEIRNKIDSLKESQEKNEVDLQDEIDMLEASLKRETTKVYTNLKPWDRVQIARLPERPTTLDYIPYIFDSFIELHGDRSFRDDPAMIGGIGYLDGKSVTVIGQQRGKDTKDNIYRNFGMAHPEGYRKALRLMKQAEKFNR = not soluble
AGRTGRLHLAIECHSCFQWLMPALDAFRGQWPDVALDLSAAFSFAPLPALVRGDLDLVITSDPQALEAVTYLPLFKYELVLAVAESNPLAANRHVMPEQLADQTLITYPVDRQRLDIFTGF = not soluble
MGSDKIHHHHHHMLHRTCIQFHKFGNPKDVLQVEYKNIEPLKENEVLVRMLVRPINPSDLIPITGAYAHRIPLPNIPGYEGVGIVEDVGAFVSRDLIGKRVLPLRGEGTWQEYVKTSPDFVVPIPDSINDFTAAQMYINPLTAWVTCTETLNLQRNDVLLVNACGSAIGHLFAQLSQILNFRLIAVTRNNKHTEELLRLGAAYVIDTSTAPLYETVMTLTNGIGADAAIDSIGGPDGNELAFSLRPNGHFLTIGLLSGVQVNWAEIVTKAKVHANIFHLRHWNKEASSYKWQETFRHLIRLVENEQLRFMKVHSTYDLADVKAAVDVVQSAEKTKG = not soluble

###

- PROCEDURE TEXT: soluble on expression in E. coli; label from the status in PepcDB or PDB records
MEASURE NAME: soluble on expression in E. coli

MSLKTQQLLTIGQLAKFSGLHVKALRYYEKIGILNPTAIDKQNGYRYYSYAHIPYVNMIKICANYGLPLKQFTHYILDDGSIDMNAILKEAQLKIEEKERQLQSDERYLRFFSEQINFSQKLDKTTNLHIEQGNKDYFLLPFTGEMLSAKYYEAVRCALAEIEKCQMTFDDRVGCYFKYDDQQVNSFIAIKIKECQEDKTNFLSLCLNHRHIHAQHLTKDRIQPKIKELHQKESINEFLILETFESPYQLSQPHLEMQYVVDNTGEGHHHHHH = soluble
MEEGDIVGILKVFFVRTGAIGKRLGFKAGDIRIREEIVQANLTWKEDGEIRRERIKTRFFGYFRSHVAEWEPVIAAESVDVERGEVARIKIKEITLPEYTVITPLFIRRHALGSLIDVVQQGKRRKVEEKKRIGEAIFLPARSGRVEKGDLLGVINVYYIATENFSVGRREKDEVLAKVVDERGRKEFRIKPFAYRRKTIARWEPIVAAENRKVRKGEVEEIAIEPISLEENTIVYPLYVMRNAFGSVVDVVEERPRRVEERREIIKAVFLPVFDGEIRKGQLLGVMNVYSIEVQPYEVIWRWLEEWQGEFRRLFAEVVGLEHHHHHH = soluble

###

- PROCEDURE TEXT: soluble on expression in E. coli; label from the status in PepcDB or PDB records
MEASURE NAME: soluble on expression in E. coli

MGHHHHHHSHMASKKPDKTYEEMVKEVERLKLENKTLKQKVKSSGAVSSDDSILTAAKRESIIVSSSRALGAVAMRKIEAKVRSRAAKAVTEQELTSLLQSLTLRVDVSMEETTVGASGGIGPSSQTETKKRRPRSKSRHRHDHE = not soluble
MIALDQHLTEHKKDITQQWLEVCTSNGSWLYSAKDQQKLGQKLKDQHELLVTIVAKSLRKEDVEDELNRWSLQCARDRAVHEVTVTQSFGQFNTFRHIMFEWIHKFSEASSQDISIQEFYEWSRILNQNIDEIIEVFTEEYHQVTMIQLNAQKEMINELSAPIMPITDGIGILPLVGEIDTHRARTILESVLEQCSALKLSYLFLDISGVPIVDTMVAYQIFKVIDSTKLLGIETIISGIRPEIAQTVVKLGLDFSNVKTEQSLAKALANKGFKIKEC = not soluble
MAIGVQKKTSTPLDVGTEQEPTNLEKTIGTLRRCLQIAGTSNKPGSRSAKNSISEESNDLTMEESVPEASKWPHCQHMISQDEAPRNDELASPNIRIVAYKDESQINDIMRLITKDLSEPYSIYTYRYFLHNWPEYCFLAYDQTNNTYIGAVLCKLELDMYGRCKGYLAMLAVDESCRRLGIGTRLVRRALDAMQSKGCDEIVLETEVSNKNAQRLYSNLGFIRQKRLLKYYLNGGDAFRLKLIFTSRRVRSLNNQENYQPRCRVNEDDTPDEEEGTY = not soluble

###

- PROCEDURE TEXT: soluble on expression in E. coli; label from the status in PepcDB or PDB records
MEASURE NAME: soluble on expression in E. coli

// solved cases for soluble on expression in E. coli follow
MAYRICLIEGDGIGHEVIPAARRVLEATGLPLEFVEAEAGWETFERRGTSVPEETVEKILSCHATLFGAATSPTRKVPGFFGAIRYLRRRLDLYANVRPAKSRPVPGSRPGVDLVIVRENTEGLYVEQERRYLDVAIADAVISKKASERIGRAALRIAEGRPRKTLHIAHKANVLPLTQGLFLDTVKEVAKDFPLVNVQDIIVDNCAMQLVMRPERFDVIVTTNLLGDILSDLAAGLVGGLGLAPSGNIGDTTAVFEPVHGSAPDIAGKGIANPTAAILSAAMMLDYLGEKEAAKRVEKAVDLVLERGPRTPDLGGDATTEAFTEAVVEALKSL = soluble
MAALASSLIRQKREVREPGGSRPVSAQRRVCPRGTKSLCQKQLLILLSKVRLCGGRPARPDRGPEPQLKGIVTKLFCRQGFYLQANPDGSIQGTPEDTSSFTHFNLIPVGLRVVTIQSAKLGHYMAMNAEGLLYSSPHFTAECRFKECVFENYYVLYASALYRQRRSGRAWYLGLDKEGQVMKGNRVKKTKAAAHFLPKLLEVAMYQEPSLHSVPEASPSSPPAPLEHHHHHH = not soluble
GIDPFTFENATSDAINQDMMLYIERIAKIIQKLPKRVHINVRGFTDDTPLVKTRFKSHYELAANRAYRVMKVLIQYGVNPNQLSFSSYGSTNPIAPNDSLENRMKNNRVEIFFSTDANDLSKIHSILDNEFNPHKQQE = soluble
MVCWSSHTASKQGNLMNQFYVHVRLFEDTAEQTKKFEELMLNFLYQKTVKESDDSCCRLIPEGYILKSTMNCQQILDQTFSIANSAGVDANIFVCKFEQSACLLPSASLVGNDFVHYDLTPKPIKLDS = not soluble
MGSDKIHHHHHHMMETTQFNPIQLKRARVARGKTMKVLAEETGISRQMISNYELGKTVPSGLNLVKLISVLNFPKNYFSATQASNLHGATFFRSQNAATKRARDMQSVRLSFQNDIYTTLSQYVNFPKVDLPESLDMDVDDITNDNIKFMAMRVRDQWDLGTKTPIENLIQTAEIHGIVVVKTNMTNDKLDAVSEIIEGRPFIMLTDNGESAVRRRFNVAHELGHIVLHAGIESIHDFTSQQLKNTIERQANLFASTFLMPDDAFVESLLSTSLDYYIKLKQYWKASIQSMIYKTYQLGLINDDQKLYLNKKISWNKWRKIEPLDNILEIENPTLFGKVFNMIIDHKVVSQADLLSELKLPFDELECSLGIQLATQKNISEPKLRLL = not soluble
MSLDVTAKYELIGLMAYPIRHSLSPEMQNKALEKAGLPFTYMAFEVDNDSFPGAIEGLKALKMRGTGVSMPNKQLACEYVDELTPAAKLVGAINTIVNDDGYLRGYNTDGTGHIRAIKESGFDIKGKTMVLLGAGGASTAIGAQGAIEGLKEIKLFNRRDEFFDKALAFAQRVNENTDCVVTVTDLADQQAFAEALASADILTNGTKVGMKPLENESLVNDISLLHPGLLVTECVYNPHMTKLLQQAQQAGCKTIDGYGMLLWQGAEQFTLWTGKDFPLEYVKQVMGFGAEGGSHHHHHH = soluble
MGSSHHHHHHSSGLEVLFQGPHMSYQVLARKWRPQTFADVVGQEHVLTALANGLSLGRIHHAYLFSGTRGVGKTSIARLLAKGLNCETGITATPCGVCDNCREIEQGRFVDLIEIDAASRTKVEDTRDLLDNVQYAPARGRFKVYLIDEVHMLSRHSFNALLKTLEEPPEHVKFLLATTDPQKLPVTILSRCLQFHLKALDVEQIRHQLEHILNEEHIAHEPRALQLLARAAEGSLRDALSLTDQAIASGDGQVSTQAVSAMLGTLDDDQALSLVEAMVEANGERVMALINEAAARGIEWEALLVEMLGLLHRIAMVQLSPAALGNDMAAIELRMRELARTIPPTDIQLYYQTLLIGRKELPYAPDRRMGVEMTLLRALAFHPRMPLPEPEVPRQ = soluble
MSLENYWVDERTLVVSGDFFGVSTGLLGGWKRVRHAFNHTVSEEFHSMEPAEYLRKVARGYGLKSYFGLLTSVPIEKLSVKGCGEVTVFATAGVMNPNERVGTINIIAVFECRMSRAAMLNAIITATEAKTKALLEEGHNFTGTNTDAVVVLCTQKGGYHRYCGPASEVGQKLWRCAGEAVKDSLARWEGHHHHHH = not soluble
MAHHHHHHMNKHICIYGGSFDPITHAHEMVLAEVSSLDWVDEIWVVLCRCRNDKHLTEFQHRHNMFSLIMNNNSPKMLKNKIFLKDIECKETTTPTYDLLKMQKEKYPNYTFYFTIGSDLLNDIFFWDNGEKLVAENNFIIVERGNFKIDENVLKKFPSYYLIKIENMSFINYISSSDARKMLSQKNNSEDLQKYIHPVIINYIKEHDLYDNNSA = soluble
MGHHHHHHSHEVFKNAQPPIRDATDLRENMQNAVVSFKELCGLSSVANLMQCMLAVSPRFLGPDNTPLVVLNLSEQYPTMELQGIVPEVLKKIVTTYDMMIQSLKALIENADAVYEKIVHCQKAAMEFHEHLHSIGTKEGLKERKLQKAVESFTWNITILKGQADLLKYAKNETLENLKQIHFAAVSCGLNKPGTENADVQKPRRSLEVIPEKANDETGE = not soluble

Consider the record given below.
Note to self: soluble on expression in E. coli recorded for `MAHHHHHHMKRGNEVAREMWAPSTWEQRMSLAGQFTTFCRTHEQPINEESRAALLVAILDVAPPTRPQHARMLRSMLEMNRTPLGMAILGLQKLAARSETRQARSLTKEGMDQFIRSRIDWNQRVVFRLACMTASRWSGIAALTPNNATLEADGTIILDWSVAPKTARADPHRAPRFVGIRGRDALDTITLCRTLQENEKLTNVTNAKVERALAPWDATAHSIKRGALRHAAQIVETCNLDPHVISQLAKHVDPFVLPQNTVRYFWKYTTVLTQVLPLVVLM` was not soluble

Data origin, for the record: the DeepSol protein solubility set
